assay: PK of compound of Formula (Ia) after single subcutaneous dose of solution formulations in beagle dogs; assay type: in vivo; settings: male, beagle, dog, plasma, sc, 12 mg/kg, beagle dogs, SC 12 mg/kg, 400 mg/mL solution Y (water, PEG 300), 3024 h, animals #1-#3
Property label: concentration at 3024 h (nM)

Record smiles	Uom	Experimental result
CC(C)(C#Cc1ccc(-c2ccc(Cl)c3c(NS(C)(=O)=O)nn(CC(F)(F)F)c23)c([C@H](Cc2cc(F)cc(F)c2)NC(=O)Cn2nc(C(F)(F)F)c3c2C(F)(F)[C@@H]2C[C@H]32)n1)S(C)(=O)=O	nM	5.55

====

Assay: PK of compound of Formula (Ia) after single subcutaneous dose of solution formulations in beagle dogs
Format: in vivo
Conditions: male, beagle, dog, plasma, sc, 12 mg/kg, male beagle dogs, single SC 12 mg/kg, 500 mg/mL solution X (5.00% ethanol, 1.91% poloxamer 188), mean ± SD, n = 3; read-out: AUC0-2016 h
Experimental: Formulations containing the compound of Formula (Ia), or a pharmaceutically acceptable salt thereof, were prepared as solutions and optionally administered subcutaneously or intramuscularly to rats, rabbits, and/or dogs. A solution of about 400 mg/mL of the compound of Formula (Ia) having 17.00 w/w % water, 36.40 w/w % PEG 300, 35.20 w/w % of a sodium salt of a compound of Formula (Ia), 5.00 w/w % ethanol, and 6.40 w/w % poloxamer 188 was prepared. […]

Compound	Uom	AUC(0-t)
CC(C)(C#Cc1ccc(-c2ccc(Cl)c3c(NS(C)(=O)=O)nn(CC(F)(F)F)c23)c([C@H](Cc2cc(F)cc(F)c2)NC(=O)Cn2nc(C(F)(F)F)c3c2C(F)(F)[C@@H]2C[C@H]32)n1)S(C)(=O)=O [compound of Formula (Ia)]	µM·h	116

====

Experiment: PK of compound of Formula (Ia) after single subcutaneous dose of solution formulations in Wistar Han rats
Format: in vivo
Details: male, Wistar Han, rat, plasma, sc, 50 mg/kg, 4704 h; individual rats; SC 50 mg/kg; solution V, 300 mg/mL
Method: Formulations containing the compound of Formula (Ia), or a pharmaceutically acceptable salt thereof, were prepared as solutions and optionally administered subcutaneously or intramuscularly to rats, rabbits, and/or dogs. A solution of about 400 mg/mL of the compound of Formula (Ia) having 19.14 w/w % water, 40.66 w/w % PEG 300, 35.20 w/w % of a sodium salt of a compound of Formula (Ia), and 5.00% ethanol was prepared. […]

Compound	concentration at 4704 h, nM
CC(C)(C#Cc1ccc(-c2ccc(Cl)c3c(NS(C)(=O)=O)nn(CC(F)(F)F)c23)c([C@H](Cc2cc(F)cc(F)c2)NC(=O)Cn2nc(C(F)(F)F)c3c2C(F)(F)[C@@H]2C[C@H]32)n1)S(C)(=O)=O [compound of Formula (Ia)]	35.9

====

experiment: PK of compound of Formula (Ia) after single subcutaneous dose of solution formulations in beagle dogs; assay type: in vivo; details: male, beagle, dog, plasma, sc, 12 mg/kg, beagle dogs, SC 12 mg/kg, 400 mg/mL solution AA (6.25% poloxamer 188), 24.0 h, animals #1-#3
Property label: concentration at 24 h (nM)

Molecule	Property label	Experimental result
CC(C)(C#Cc1ccc(-c2ccc(Cl)c3c(NS(C)(=O)=O)nn(CC(F)(F)F)c23)c([C@H](Cc2cc(F)cc(F)c2)NC(=O)Cn2nc(C(F)(F)F)c3c2C(F)(F)[C@@H]2C[C@H]32)n1)S(C)(=O)=O [compound of Formula (Ia)]	concentration at 24 h	118

====

Assay: PK of compound of Formula (Ia) after single subcutaneous dose of solution formulations in beagle dogs
Assay type: in vivo
Conditions: male, beagle, dog, plasma, sc, 6 mg/kg, mean ± SD, n = 3 dogs; SC 6 mg/kg; solution V, 300 mg/mL; read-out: AUC0-24 h
Experimental: Formulations containing the compound of Formula (Ia), or a pharmaceutically acceptable salt thereof, were prepared as solutions and optionally administered subcutaneously or intramuscularly to rats, rabbits, and/or dogs. A solution of about 400 mg/mL of the compound of Formula (Ia) having 17.00 w/w % water, 36.40 w/w % PEG 300, 35.20 w/w % of a sodium salt of a compound of Formula (Ia), 5.00 w/w % ethanol, and 6.40 w/w % poloxamer 188 was prepared. […]
Property label: AUC(0-t) (µM·h)

Record smiles	Property label	Experimental result
CC(C)(C#Cc1ccc(-c2ccc(Cl)c3c(NS(C)(=O)=O)nn(CC(F)(F)F)c23)c([C@H](Cc2cc(F)cc(F)c2)NC(=O)Cn2nc(C(F)(F)F)c3c2C(F)(F)[C@@H]2C[C@H]32)n1)S(C)(=O)=O	AUC(0-t)	0.304

====

Experiment: PK of compound of Formula (Ia) after single subcutaneous dose of solution formulations in beagle dogs
Format: in vivo
Conditions: male, beagle, dog, plasma, sc, 12 mg/kg, mean ± SD, n = 3 dogs; SC 12 mg/kg; solution T, 400 mg/mL; read-out: AUC0-168 h
Protocol: Formulations containing the compound of Formula (Ia), or a pharmaceutically acceptable salt thereof, were prepared as solutions and optionally administered subcutaneously or intramuscularly to rats, rabbits, and/or dogs. A solution of about 400 mg/mL of the compound of Formula (Ia) having 17.00 w/w % water, 36.40 w/w % PEG 300, 35.20 w/w % of a sodium salt of a compound of Formula (Ia), 5.00 w/w % ethanol, and 6.40 w/w % poloxamer 188 was prepared. […]
Property label: AUC(0-t) (µM·h)

Record smiles	Experimental result
CC(C)(C#Cc1ccc(-c2ccc(Cl)c3c(NS(C)(=O)=O)nn(CC(F)(F)F)c23)c([C@H](Cc2cc(F)cc(F)c2)NC(=O)Cn2nc(C(F)(F)F)c3c2C(F)(F)[C@@H]2C[C@H]32)n1)S(C)(=O)=O	36

====

experiment: PK of compound of Formula (Ia) after single subcutaneous dose of solution formulations in Wistar Han rats; assay type: in vivo; details: male, Wistar Han, rat, plasma, sc, 50 mg/kg, 168 h; individual rats; SC 50 mg/kg; solution R, 400 mg/mL

Record smiles	concentration at 168 h (nM)
CC(C)(C#Cc1ccc(-c2ccc(Cl)c3c(NS(C)(=O)=O)nn(CC(F)(F)F)c23)c([C@H](Cc2cc(F)cc(F)c2)NC(=O)Cn2nc(C(F)(F)F)c3c2C(F)(F)[C@@H]2C[C@H]32)n1)S(C)(=O)=O	191

====

test: PK of compound of Formula (Ia) after single subcutaneous dose of solution formulations in beagle dogs; format: in vivo; settings: male, beagle, dog, plasma, sc, 6 mg/kg, mean ± SD, n = 3 dogs; SC 6 mg/kg; solution V, 300 mg/mL; read-out: AUC0-3024 h
Property label: AUC(0-t) (µM·h)

Record smiles	Experimental result
CC(C)(C#Cc1ccc(-c2ccc(Cl)c3c(NS(C)(=O)=O)nn(CC(F)(F)F)c23)c([C@H](Cc2cc(F)cc(F)c2)NC(=O)Cn2nc(C(F)(F)F)c3c2C(F)(F)[C@@H]2C[C@H]32)n1)S(C)(=O)=O	111

====

experiment: PK of compound of Formula (Ia) after single subcutaneous dose of solution formulations in Wistar Han rats; type: in vivo; details: male, Wistar Han, rat, plasma, sc, 50 mg/kg, Wistar Han rats, SC 50 mg/kg, 400 mg/mL solution Y (water, PEG 300), 8.00 h, animals #1-#4
Property label: concentration at 8 h (nM)

Compound	Uom	Experimental result
CC(C)(C#Cc1ccc(-c2ccc(Cl)c3c(NS(C)(=O)=O)nn(CC(F)(F)F)c23)c([C@H](Cc2cc(F)cc(F)c2)NC(=O)Cn2nc(C(F)(F)F)c3c2C(F)(F)[C@@H]2C[C@H]32)n1)S(C)(=O)=O [compound of Formula (Ia)]	nM	62.1

====

assay: PK of compound of Formula (Ia) after single subcutaneous dose of solution formulations in Wistar Han rats; format: in vivo; settings: male, Wistar Han, rat, plasma, sc, 50 mg/kg, Wistar Han rats, SC 50 mg/kg, 400 mg/mL solution W (5.00% ethanol, 1.57% poloxamer 188), 1008 h, Mean n = 3
Property label: concentration at 1008 h (µM)

Record smiles	Property label	Experimental result
CC(C)(C#Cc1ccc(-c2ccc(Cl)c3c(NS(C)(=O)=O)nn(CC(F)(F)F)c23)c([C@H](Cc2cc(F)cc(F)c2)NC(=O)Cn2nc(C(F)(F)F)c3c2C(F)(F)[C@@H]2C[C@H]32)n1)S(C)(=O)=O	concentration at 1008 h	0.239

====

test: PK of compound of Formula (Ia) after single subcutaneous dose of solution formulations in Wistar Han rats; format: in vivo; conditions: male, Wistar Han, rat, plasma, sc, 50 mg/kg, 5376 h; mean, n = 5 rats; SC 50 mg/kg; solution U, 500 mg/mL
Property label: concentration at 5376 h (nM)

Record smiles	Experimental result
CC(C)(C#Cc1ccc(-c2ccc(Cl)c3c(NS(C)(=O)=O)nn(CC(F)(F)F)c23)c([C@H](Cc2cc(F)cc(F)c2)NC(=O)Cn2nc(C(F)(F)F)c3c2C(F)(F)[C@@H]2C[C@H]32)n1)S(C)(=O)=O	38.9

Source listed as patent US11807625B2.
